These entries and their values trace back to patent EP0863148A1.

biological target: adenosine A1 receptor (Rattus norvegicus); construct: adenosine A1 receptor in rat brain cortex; from tissue; host or cells: rat brain cortex; assay: Radioligand binding assay, displacement of [3H]DPCPX, in the absence and presence of 1 mM GTP; details: rat brain cortex, [3H]DPCPX, absence of GTP
pKi: −log10 of the molar value.
quantity kind: pKi

compound	measured number
O=C(N[C@@H]1[C@@H](O)[C@H](n2cnc3c(NC4CCCC4)ncnc32)O[C@@H]1CO)c1ccccc1	6.40
Cc1ccc(C(=O)N[C@@H]2[C@@H](O)[C@H](n3cnc4c(NC5CCCC5)ncnc43)O[C@@H]2CO)cc1C	7.63
O=C(N[C@@H]1[C@@H](O)[C@H](n2cnc3c(NC4CCCC4)ncnc32)O[C@@H]1CO)c1ccc(Cl)c(Cl)c1	7.49
Nc1ncnc2c1ncn2[C@@H]1O[C@H](CO)C[C@H]1O [3'-deoxyadenosine, reference compound]	5.15
Cc1ccc(C(=O)N[C@@H]2[C@@H](O)[C@H](n3cnc4c(NC5CCCC5)ncnc43)O[C@@H]2CO)cc1	7.08
OCC1CC(O)C(n2cnc3c(NC4CCCC4)ncnc32)O1 (stereo not drawn) [3'-deoxy-CPA, reference compound]	6.96

###

Each record here notes measured Ki.
Target: adenosine A1 receptor (Rattus norvegicus, UniProt P25099)
Construct: adenosine A1 receptor in rat brain cortex; from tissue; host or cells: rat brain cortex
Sequence (P25099 1-326): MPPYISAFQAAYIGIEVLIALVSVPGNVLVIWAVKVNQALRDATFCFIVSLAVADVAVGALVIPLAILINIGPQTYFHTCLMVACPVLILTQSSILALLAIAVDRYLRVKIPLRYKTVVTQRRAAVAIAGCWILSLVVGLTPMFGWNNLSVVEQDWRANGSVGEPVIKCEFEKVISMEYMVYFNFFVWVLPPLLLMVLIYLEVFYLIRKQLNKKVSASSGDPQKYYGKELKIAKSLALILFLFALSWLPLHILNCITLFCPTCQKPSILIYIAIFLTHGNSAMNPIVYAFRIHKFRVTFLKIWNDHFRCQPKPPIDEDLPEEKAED
Test: Radioligand binding assay, displacement of [3H]DPCPX, in the absence and presence of 1 mM GTP
Details: rat brain cortex, [3H]DPCPX, presence of 1 mM GTP
Experimental: The compounds were assayed for A1 affinity (Ki values expressed in µM) using the tritiated antagonist [^3H]-1,3-dipropyl-8-cyclopentylxanthine (DPCPX). Displacement experiments were performed in the absence and presence of 1 mM GTP, allowing the determination of the GTP shift (i.e., the ratio of the apparant Ki values in the presence and absence of GTP, respectively). This shift is an in vitro parameter often indicative for intrinsic activity.

compound	Ki (nM)
O=C(N[C@@H]1[C@@H](O)[C@H](n2cnc3c(NC4CCCC4)ncnc32)O[C@@H]1CO)c1ccc(Cl)c(Cl)c1 [d]	23.7
O=C(N[C@@H]1[C@@H](O)[C@H](n2cnc3c(NC4CCCC4)ncnc32)O[C@@H]1CO)c1ccccc1 [a]	310
Cc1ccc(C(=O)N[C@@H]2[C@@H](O)[C@H](n3cnc4c(NC5CCCC5)ncnc43)O[C@@H]2CO)cc1C [c]	17.4
Cc1ccc(C(=O)N[C@@H]2[C@@H](O)[C@H](n3cnc4c(NC5CCCC5)ncnc43)O[C@@H]2CO)cc1 [b]	68
OCC1CC(O)C(n2cnc3c(NC4CCCC4)ncnc32)O1 (stereo not drawn) [3'-deoxy-CPA, reference compound]	470
Nc1ncnc2c1ncn2[C@@H]1O[C@H](CO)C[C@H]1O [3'-deoxyadenosine, reference compound]	15200

###

biological target: adenosine A1 receptor (Rattus norvegicus); construct: adenosine A1 receptor in rat brain cortex; from tissue; host or cells: rat brain cortex; assay: Radioligand binding assay, displacement of [3H]DPCPX, in the absence and presence of 1 mM GTP; conditions: ratio of the apparent Ki values in the presence and absence of 1 mM GTP
quantity kind: GTP shift

molecule	study system	measured number
OCC1CC(O)C(n2cnc3c(NC4CCCC4)ncnc32)O1 (stereo not drawn) [3'-deoxy-CPA, reference compound]	adenosine A1 receptor (Rattus norvegicus)	4.3
Nc1ncnc2c1ncn2[C@@H]1O[C@H](CO)C[C@H]1O [3'-deoxyadenosine, reference compound]	adenosine A1 receptor (Rattus norvegicus)	2.1
O=C(N[C@@H]1[C@@H](O)[C@H](n2cnc3c(NC4CCCC4)ncnc32)O[C@@H]1CO)c1ccc(Cl)c(Cl)c1 [d]	adenosine A1 receptor (Rattus norvegicus)	0.73
O=C(N[C@@H]1[C@@H](O)[C@H](n2cnc3c(NC4CCCC4)ncnc32)O[C@@H]1CO)c1ccccc1 [a]	adenosine A1 receptor (Rattus norvegicus)	0.80
Cc1ccc(C(=O)N[C@@H]2[C@@H](O)[C@H](n3cnc4c(NC5CCCC5)ncnc43)O[C@@H]2CO)cc1 [b]	adenosine A1 receptor (Rattus norvegicus)	0.84
Cc1ccc(C(=O)N[C@@H]2[C@@H](O)[C@H](n3cnc4c(NC5CCCC5)ncnc43)O[C@@H]2CO)cc1C [c]	adenosine A1 receptor (Rattus norvegicus)	0.73
